molecular target: VHL (Homo sapiens); construct: expressed in transfected cells; assay: VHL HEK-293 BRET Assay (VHL NanoBRET Target Engagement Assay); format: cell-based; settings: HEK 293 RT VHL-NanoLuc stable cells; read-out: IC50
Sequence (P40337 whole entry): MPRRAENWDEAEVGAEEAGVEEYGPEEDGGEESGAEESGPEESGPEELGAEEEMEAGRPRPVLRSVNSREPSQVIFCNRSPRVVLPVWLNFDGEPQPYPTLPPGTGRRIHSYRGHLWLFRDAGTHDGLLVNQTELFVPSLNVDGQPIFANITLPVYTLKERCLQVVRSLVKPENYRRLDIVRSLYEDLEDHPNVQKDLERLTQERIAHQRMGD
Property label: pIC50
The meaning of pIC50 here: minus log10 of the concentration in molar units.

Query string: Consider the compound shown here: CC(C)(C)[C@@H](C(=O)N1C[C@H](O)C[C@H]1C(=O)NCCCn1cnc2c(N)ncnc21)n1cc(C2CC2)nn1 What is its recorded pIC50?
Result string: 4.76

Query string: Moving on to the next compound: CC(C)(C)[C@@H](C(=O)N1C[C@H](O)C[C@H]1C(=O)NC1CN(c2ccncc2)C1)n1cc(C2CC2)nn1
Result string: 4.57

Moving on to another compound below.
Query string: Consider the compound shown here: CC(C)(NC(=O)[C@@H]1C[C@@H](O)CN1C(=O)[C@@H](n1cc(C2CC2)nn1)C(C)(C)C)c1cccc(C#N)c1 What is its recorded pIC50?
Result string: 6.03
